- assay comment: solvent given as SMILES
- test parameters: in CC(C)=O
Each record here notes measured fluorescence lifetime.
Reply numerically in ns, unit not repeated.

Query: // fetch fluorescence lifetime given entry COc1ccc(/C=C/C2=[O+][B-](F)(F)OC(/C=C/c3ccc(OC)cc3)=C2c2ccccc2)cc1
Response: 1.43

Query: // fetch fluorescence lifetime given entry Cn1cc(-c2nc3ccccc3nc2/C=C/N2CCCC2)c2ccccc21
Response: 6.42

Query: // fetch fluorescence lifetime given entry c1ccc(-c2nn(-c3ccccc3)c3nc4ccc(-n5c6ccccc6c6ccccc65)cc4cc23)cc1
Response: 21.6

Query: // fetch fluorescence lifetime given entry CC(=O)O[B-]1(OC(C)=O)OC(/C=C/c2cccc3ccccc23)=CC(/C=C/c2cccc3ccccc23)=[O+]1
Response: 4.67

Okay, next one:
Query: // fetch fluorescence lifetime given entry COc1ccc(/C=C/C2=CC(/C=C/c3ccc(OC)cc3)=[O+][B-](OC(C)=O)(OC(C)=O)O2)cc1
Response: 2.29

====

- assay comment: solvent given as SMILES
- test parameters: in ClCCl
quantity measured: fluorescence lifetime (ns)
Reply numerically in ns, unit not repeated.

Query: // fetch fluorescence lifetime given entry CC(C)[Si](C#Cc1c2ccccc2c(C#C[Si](C(C)C)(C(C)C)C(C)C)c2nc3cc4c(cc3nc12)C1c2ccccc2C4c2ccccc21)(C(C)C)C(C)C
Response: 18.3

Query: // fetch fluorescence lifetime given entry CC1=C2c3ccccc3C(c3[nH]c(C)cc3C)=[N+]2[B-](F)(F)n2c(C)cc(C)c21
Response: 7.3

Query: // fetch fluorescence lifetime given entry CCCCCCCCCCCCN1C(=O)c2c(c3ccc4cc(-c5ccc(C(F)(F)F)cc5)c(OC)cc4c3c3c2ccc2cc(-c4ccc(C(F)(F)F)cc4)c(OC)cc23)C1=O
Response: 6.39

Query: // fetch fluorescence lifetime given entry N#Cc1ccc(C2=Cc3cc4ccccc4cc3P2(=O)c2ccccc2)cc1 (configuration not stated)
Response: 2.5

Query: // fetch fluorescence lifetime given entry COc1ccc2c(=O)c3c([nH]c2c1)-c1cc(Cl)ccc1NC3(C)C
Response: 9.85

New cases:
Query: // fetch fluorescence lifetime given entry CC1(C)c2ccccc2N(c2ccc(-c3nc(-c4ccccc4)cc(-c4ccccc4)n3)cc2)c2ccccc21
Response: 18.2

Query: // fetch fluorescence lifetime given entry COCCOCCOCCOCC(COCCOCCOCCOC)Oc1cc(/C=C/c2ccc(C=C(C#N)C#N)cc2)c(OC(COCCOCCOCCOC)COCCOCCOCCOC)cc1/C=C/c1ccc(C=C(C#N)C#N)cc1
Response: 1.7

====

Each record here notes measured log10 of fluorescence lifetime.
- assay comment: solvent given as SMILES
- test parameters: in CCOC(C)=O
In our notation, the value equals log10 of fluorescence lifetime in ns.

# annotated cases, reported log10 of fluorescence lifetime shown
Query: // fetch log10 of fluorescence lifetime given entry C#CCNC1=C2C=C(c3cc4n(c3)[B-](F)(F)[N+]3=CC=CC3=C4c3c(C)cc(C)cc3C)C(C)=[N+]2[B-](F)(F)n2c(C)ccc21
Response: -0.24

Query: // fetch log10 of fluorescence lifetime given entry CCN(CC)c1ccc(C=Cc2nc3nc4ccccc4nc3s2)cc1
Response: 0.13

Query: // fetch log10 of fluorescence lifetime given entry OB(O)c1ccc(-c2ccc(N(c3ccccc3)c3ccccc3)cc2)cc1
Response: 0.34

Query: // fetch log10 of fluorescence lifetime given entry c1cc2c([nH]c3c4[nH]c5sccc5c4c4nsnc4c23)s1
Response: 1.22

Query: // fetch log10 of fluorescence lifetime given entry COc1ccc(-c2ccc(-c3ccc(C#N)s3)s2)cc1
Response: -0.36

Query: // fetch log10 of fluorescence lifetime given entry CCN(CC)c1ccc2c(C(F)(F)F)cc(=O)oc2c1
Response: 0.66

Query: // fetch log10 of fluorescence lifetime given entry CC1=[N+]2C(=C(Oc3ccc4c(c3)CC[C@@H]3[C@@H]4CC[C@]4(C)C(=O)CC[C@@H]34)c3ccc(C)n3[B-]2(F)F)C=C1c1cc2n(c1)[B-](F)(F)[N+]1=CC=CC1=C2c1c(C)cc(C)cc1C
Response: -0.04

Query: // fetch log10 of fluorescence lifetime given entry Nc1ccc2c(C(F)(F)F)cc(=O)oc2c1
Response: 0.67

Okay, next one:
Query: // fetch log10 of fluorescence lifetime given entry CCN(CC)c1ccc(C=Cc2nc3nc4ccccc4nc3s2)c(OC)c1
Response: -0.02

====

- assay comment: solvent given as SMILES
- test parameters: in CO
Each record here notes measured fluorescence lifetime.
Reply numerically in ns, unit not repeated.

# annotated cases, reported fluorescence lifetime shown
Query: // fetch fluorescence lifetime given entry Cc1ccc(-n2c(-c3ccccc3O)nc(-c3ccccc3O)c2-c2ccccc2O)cc1
Response: 2.9

Query: // fetch fluorescence lifetime given entry COc1cccc2c1C(=O)c1ccccc1-2
Response: 3.82

Query: // fetch fluorescence lifetime given entry Nc1ccc2c(C(F)(F)F)cc(=O)oc2c1
Response: 5.31

Query: // fetch fluorescence lifetime given entry COc1c2ccccc2c(OC)c2c1c1c(F)cccc1n2C
Response: 24.4

Query: // fetch fluorescence lifetime given entry CC1(C)CC(/N=C/c2ccc3ccc4cccc5ccc2c3c45)CC(C)(C)N1[O]
Response: 2.1

Query: // fetch fluorescence lifetime given entry CC(C)CCCN1c2ccccc2CCc2ccccc21
Response: 0.86

Query: // fetch fluorescence lifetime given entry Nc1ccc2c3cccc4cccc(c5cccc1c52)c43
Response: 5

Query: // fetch fluorescence lifetime given entry c1ccc2c(-n3cnc4ccccc43)cccc2c1
Response: 4.3

Query: // fetch fluorescence lifetime given entry CCNc1cc2oc3c/c(=[NH+]\CC)c(C)cc-3c(-c3ccccc3C(=O)OCC)c2cc1C
Response: 3.7

Query: // fetch fluorescence lifetime given entry CC(C)c1ccc2ccc3cccc4ccc1c2c34
Response: 149

New cases:
Query: // fetch fluorescence lifetime given entry O=C(O)CCCCCn1c2ccc(Br)cc2c(=O)c2cc3c(cc21)c(=O)c1cc(Br)ccc1n3CCCCCC(=O)O
Response: 17.3

====

- assay comment: solvent given as SMILES
- test parameters: in CCOC(C)=O
Each entry falls in a class defined on fluorescence lifetime; the bands are bucket 1: < 1 ns; bucket 2: ≥ 1 ns and < 4 ns; bucket 3: ≥ 4 ns

Query: Sort COc1ccc(C2=C3C=c4c(oc5ccccc45)=[N+]3[B-](F)(F)n3c2cc2c4ccccc4oc23)cc1 into one of the categories.
Response: bucket 3

====

- assay comment: solvent given as SMILES
- test parameters: in CO
I'd appreciate it if you marked entries label 1 when fluorescence lifetime is lower than 5 ns and label 0 when it is not.

Consider the following illustrative entries.
Query: Is fluorescence lifetime strictly under 5 ns for the entry CCCC(=O)c1c2c(c(C(=O)CCC)c3c1OC(CC(=O)OC)(C(=O)OC)O3)OCO2 ?
Response: label 0

Query: Is fluorescence lifetime strictly under 5 ns for the entry CC(C)(C)c1ccc2ccc3c(C(C)(C)C)ccc4ccc1c2c43 ?
Response: label 0

Query: Is fluorescence lifetime strictly under 5 ns for the entry COC(=O)c1c2ccccc2nc2ccccc12 ?
Response: label 1

Query: Is fluorescence lifetime strictly under 5 ns for the entry COc1cc(N(c2ccccc2)c2ccc(C=C(C#N)C#N)c(OC)c2)ccc1C=C(C#N)C#N ?
Response: label 1

Query: Is fluorescence lifetime strictly under 5 ns for the entry CC\C=C/C=C/C=C/C=C\CCCCCCCC(=O)O ?
Response: label 1

New cases:
Query: Is fluorescence lifetime strictly under 5 ns for the entry F[B-]1(F)n2c(cc3c4ccccc4oc32)C(c2ccccc2)=C2C=c3c(oc4ccccc34)=[N+]21 ?
Response: label 1

Query: Is fluorescence lifetime strictly under 5 ns for the entry CN(C)CCCN1c2ccccc2CCc2ccccc21 ?
Response: label 1

Query: Is fluorescence lifetime strictly under 5 ns for the entry O=C1/C(=C2\Sc3ccc(S(=O)(=O)Nc4ccccc4)cc3C2=O)Sc2ccc(S(=O)(=O)Nc3ccccc3)cc21 ?
Response: label 1

Query: Is fluorescence lifetime strictly under 5 ns for the entry CCOC(=O)C1=CN(c2ccccc2)C=C(C(=O)OCC)C1c1ccccc1 ?
Response: label 0

Query: Is fluorescence lifetime strictly under 5 ns for the entry CN1CCN(c2ccc3c4c(cccc24)C(=O)c2ccccc2-3)CC1 ?
Response: label 1

Query: Is fluorescence lifetime strictly under 5 ns for the entry CCn1c(=O)nc2n(C)c3cc(C)ccc3nc-2c1=O ?
Response: label 0

Query: Is fluorescence lifetime strictly under 5 ns for the entry Cc1ccc(C2=C3C=CC(/C=C/c4ccccc4)=[N+]3[B-](F)(F)n3c(/C=C/c4ccccc4)ccc32)cc1 ?
Response: label 1

Query: Is fluorescence lifetime strictly under 5 ns for the entry CC1(C)C(/C=C/C=C/C=C/C=C2/N(CCCCS(=O)(=O)[O-])c3ccc4ccccc4c3C2(C)C)=[N+](CCCCS(=O)(=O)[O-])c2ccc3ccccc3c21 ?
Response: label 1

Query: Is fluorescence lifetime strictly under 5 ns for the entry CCC(=O)c1ccc2cc(N(C)C)ccc2c1 ?
Response: label 1

Query: Is fluorescence lifetime strictly under 5 ns for the entry OB(O)c1ccc(-c2ccc(N(c3ccccc3)c3ccccc3)cc2)cc1 ?
Response: label 1

Query: Is fluorescence lifetime strictly under 5 ns for the entry CC1(C)C(/C=C/C2=C(Oc3ccc(CCN=C=S)cc3I)C(=C/C=C3/N(CCCS(=O)(=O)[O-])c4ccccc4C3(C)C)/CCC2)=[N+](CCCS(=O)(=O)[O-])c2ccccc21 ?
Response: label 1

Query: Is fluorescence lifetime strictly under 5 ns for the entry COc1ccc2c(c1)c1c(OC)c3ccccc3c(OC)c1n2C ?
Response: label 0

Query: Is fluorescence lifetime strictly under 5 ns for the entry O=C([O-])c1ccccc1C1=c2cc3c4c(c2Oc2c1cc1c5c2CCCN5CCC1)CCC[N+]=4CCC3 ?
Response: label 1
